Test: Dose-escalating phase I studies: pharmacokinetics, safety and tolerability of AQGV
Assay type: in vivo, humans (healthy subjects)
Details: human, in vivo, iv, range over phase I studies; read-out: clearance rate
Peptide text beside a SMILES is read from it.
MEASURED METRIC: clearance

Request the reported clearance associated with CC(C)[C@H](NC(=O)CNC(=O)[C@H](CCC(N)=O)NC(=O)[C@H](C)N)C(=O)O [AQGV] (H-AQGV-OH) 433 to 1020 mL/min/kg

* * *

Assay: Dose-escalating phase I studies: pharmacokinetics, safety and tolerability of AQGV
Format: in vivo, humans (healthy subjects)
Settings: human, in vivo, iv, range over phase I studies; read-out: estimated half life time
Peptide text beside a SMILES is read from it.
MEASURED METRIC: half-life

Request the reported half-life associated with CC(C)[C@H](NC(=O)CNC(=O)[C@H](CCC(N)=O)NC(=O)[C@H](C)N)C(=O)O [AQGV] (H-AQGV-OH) 2 to 22 min

* * *

Test: Dose-escalating phase I studies: pharmacokinetics, safety and tolerability of AQGV
Assay type: in vivo, humans (healthy subjects)
Conditions: human, in vivo, iv, range over phase I studies; read-out: volume of distribution
Peptide text beside a SMILES is read from it.
MEASURED METRIC: Vd

Request the reported Vd associated with CC(C)[C@H](NC(=O)CNC(=O)[C@H](CCC(N)=O)NC(=O)[C@H](C)N)C(=O)O [AQGV] (H-AQGV-OH) 4 to 33 L/kg
